TARGET UNDER TEST: Tyrosine-protein phosphatase non-receptor type 2 (Homo sapiens, UniProt P17706)
Sequence (P17706 whole entry): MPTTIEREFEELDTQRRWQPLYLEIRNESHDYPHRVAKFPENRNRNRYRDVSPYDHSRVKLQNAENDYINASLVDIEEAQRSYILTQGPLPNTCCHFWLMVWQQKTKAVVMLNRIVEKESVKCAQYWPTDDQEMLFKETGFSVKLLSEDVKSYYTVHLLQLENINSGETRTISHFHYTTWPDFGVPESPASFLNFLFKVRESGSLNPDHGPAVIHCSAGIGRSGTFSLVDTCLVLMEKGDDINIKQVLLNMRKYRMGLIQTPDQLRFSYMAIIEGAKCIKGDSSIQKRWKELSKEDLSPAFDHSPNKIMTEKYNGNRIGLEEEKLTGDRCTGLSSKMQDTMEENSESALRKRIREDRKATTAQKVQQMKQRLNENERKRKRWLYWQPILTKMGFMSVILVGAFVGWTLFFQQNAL
QUANTITY KIND: pIC50
Note: pIC50 values are expressed as the negative base-10 logarithm of concentration in M.

Query (molecule): "O=C(/C=C/c1ccc(O)c(O)c1)O[C@@H]1C[C@](O)(C(=O)O)C[C@@H](O)[C@H]1O" ; field requested: pIC50
4.11

---

TARGET UNDER TEST: UniProt P18031
Sequence (P18031 whole entry): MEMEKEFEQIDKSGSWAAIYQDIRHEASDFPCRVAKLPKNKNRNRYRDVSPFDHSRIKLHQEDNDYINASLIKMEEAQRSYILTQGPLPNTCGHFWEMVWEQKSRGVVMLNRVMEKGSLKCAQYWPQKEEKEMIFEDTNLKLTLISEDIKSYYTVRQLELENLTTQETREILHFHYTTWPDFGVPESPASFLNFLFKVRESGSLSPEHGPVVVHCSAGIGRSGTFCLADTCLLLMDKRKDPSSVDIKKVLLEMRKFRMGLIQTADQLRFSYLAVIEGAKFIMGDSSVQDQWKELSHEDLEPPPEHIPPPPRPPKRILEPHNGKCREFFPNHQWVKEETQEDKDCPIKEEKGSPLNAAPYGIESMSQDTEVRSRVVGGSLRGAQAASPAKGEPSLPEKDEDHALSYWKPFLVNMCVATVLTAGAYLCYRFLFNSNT
ASSAY NOTES: Inhibition of PTP1B (unknown origin)
QUANTITY KIND: inhibition

O=C(/C=C/c1ccc(O)c(O)c1)O[C@H]1[C@H](O)C[C@](O)(C(=O)O)C[C@H]1O ... Dose-dependent effect
O=C(/C=C/c1ccc(O)c(O)c1)O[C@@H]1C[C@](OC(=O)/C=C/c2ccc(O)c(O)c2)(C(=O)O)C[C@@H](O)[C@H]1O [1,5-O-TRANS-DICAFFEOYLQUINIC ACID] ... Dose-dependent effect
O=C(/C=C/c1ccc(O)c(O)c1)O[C@@H]1[C@H](O)C[C@@](O)(C(=O)O)C[C@H]1OC(=O)/C=C/c1ccc(O)c(O)c1 ... Dose-dependent effect

FYI, the data here is from ChEMBL document CHEMBL4184307.
